Sourced from ChEMBL document CHEMBL3991601

# Kd values compiled below
- MEASURED_TARGET: Protein kinase C beta type (Homo sapiens, UniProt P05771); also: in the data inactive means no Kd found up to 30 µM
- Sequence (P05771 whole entry): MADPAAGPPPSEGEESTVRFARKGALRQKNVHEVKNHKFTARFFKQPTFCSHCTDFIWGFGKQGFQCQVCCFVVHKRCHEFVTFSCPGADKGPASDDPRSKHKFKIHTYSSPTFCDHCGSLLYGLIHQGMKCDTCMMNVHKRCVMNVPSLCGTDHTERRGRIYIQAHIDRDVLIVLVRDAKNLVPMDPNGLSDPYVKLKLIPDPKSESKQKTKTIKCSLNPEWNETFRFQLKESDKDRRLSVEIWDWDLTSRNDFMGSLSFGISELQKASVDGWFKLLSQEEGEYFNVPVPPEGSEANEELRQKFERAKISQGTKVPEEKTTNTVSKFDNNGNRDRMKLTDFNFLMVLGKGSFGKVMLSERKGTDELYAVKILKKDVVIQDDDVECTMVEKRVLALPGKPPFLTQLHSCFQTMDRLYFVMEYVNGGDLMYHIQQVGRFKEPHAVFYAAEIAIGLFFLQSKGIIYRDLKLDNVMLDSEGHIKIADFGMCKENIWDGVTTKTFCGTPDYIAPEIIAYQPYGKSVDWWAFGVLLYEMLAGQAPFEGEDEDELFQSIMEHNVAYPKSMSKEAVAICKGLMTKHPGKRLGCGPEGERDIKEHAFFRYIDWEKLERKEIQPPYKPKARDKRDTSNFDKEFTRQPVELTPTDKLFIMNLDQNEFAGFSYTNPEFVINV
Active and inactive are the calls of the source.
PROPERTY: Kd

1) CC(=O)Nc1cccc(-n2c(=O)n(C3CC3)c(=O)c3c(Nc4ccc(I)cc4F)n(C)c(=O)c(C)c32)c1    > 30 µM (inactive)
2) O=C(Nc1cccc(Cl)c1)Nc1ncc(CCNc2ncnc3ccsc23)s1    > 30 µM (inactive)
3) CN1CCC(COc2cnc(-c3cccc(Cn4nc(-c5cccc(C#N)c5)ccc4=O)c3)nc2)CC1    > 30 µM (inactive)
4) CCn1c(=O)c(-c2cc[nH]n2)cc2c(C)nc(N)nc21    > 30 µM (inactive)
